# Test system: SF-268 CNS
# test-details: NCI-60 one-dose screen, 48 h (100 = growth as untreated, 0 = no growth, -100 = all killed)
# protocol-conditions: 10 µM unless noted
This is part of a sample that, as a whole, favours compounds with a hit. Of some 83,000 tested, about 20% had one in any assay.
The following compounds are shown together with reported growth values.
Report the figure in % without appending any unit label.

Solved entries:
Hi! What's the reported growth for `CN1CCN(CCCOc2ccc3ncnc(Nc4ccc(Oc5cccc(F)c5)c(Cl)c4)c3c2)CC1` on SF-268 CNS?
40.5

Provide value of growth for this record tested with SF-268 CNS: `C#CC#CC#CC#CC#CC#CC#CC#CC[C@H]1OC[C@@H](COC(=O)O[C@@H](C(=O)O[C@H]2C[C@@]3(O)[C@@H](OC(=O)c4ccccc4)[C@@H]4[C@]5(OC(C)=O)CO[C@@H]5C[C@H](O)[C@@]4(C)C(=O)[C@H](OC(C)=O)C(=C2C)C3(C)C)[C@@H](NC(=O)c2ccccc2)c2ccccc2)O1`
65.9

Please state recorded growth (tested on SF-268 CNS) of `OC(c1ccccc1)(c1ccccc1)c1ccccc1-c1ccccc1`
90.6

Identify the measured growth of `Fc1ccc2c(c1)c(-c1nc(-c3c[nH]c4ncccc34)cs1)cn2CCCN1CCOCC1` for SF-268 CNS.
50.8

# value lookup — system SF-268 CNS, readout growth, item `O=C(CSc1nc2ccc([N+](=O)[O-])cc2[nH]1)Nc1cccc([N+](=O)[O-])c1`
64.6

More entries:
Identify the measured growth of `CCCCCCCCn1ccc2cc(NC(=O)Cn3cc(CN4CCOCC4)nn3)ccc21` for SF-268 CNS.
106

// fetch SF-268 CNS growth for `O=C(/C=C/c1ccccc1)Nc1ncc(Cc2ccccc2)s1`
39.4

Which measured growth belongs to `O=C(CSc1nc2ccc([N+](=O)[O-])cc2[nH]1)Nc1ccc(Br)cc1` , tested on SF-268 CNS?
65.5

* * *

# maps each entry to its growth
# Test system: SK-MEL-2 melanoma
# test-details: NCI-60 one-dose screen, 48 h (100 = growth as untreated, 0 = no growth, -100 = all killed)
# protocol-conditions: 10 µM unless noted
The panel holds about 83,000 compounds, 20% with a hit somewhere; the sample as a whole holds those more often.
A number alone suffices; assume %.

As a guide, the following entries are already answered.
Could you tell me which growth is on file for `COc1ccc2nc3cc(Cl)ccc3c(NCCN)c2c1` ?
98.5

Entry `CC1(C)CC[C@]2(C(=O)O)CC[C@]3(C)C(=CC[C@@H]4[C@@]5(C)C[C@@H](Cc6cn([C@@H]7O[C@H](CO)[C@@H](O)[C@H](O)[C@H]7O)nn6)[C@H](O)C(C)(C)[C@@H]5CC[C@]43C)[C@@H]2C1` has what growth?
113

Bench note: what growth did `CCN(C(=O)N1CCN(c2cc3c(cc2F)c(=O)c(C(=O)O)cn3C2CC2)CC1)c1nc(-c2ccc(C)cc2)cs1` show?
-1.1

May I ask what growth has been recorded for `COc1cc(/C=C2\C(=O)N(c3c(Cl)cccc3Cl)c3ccccc32)cc(OC)c1OCCCCCCn1c2ccccc2c(=O)c2ccccc21` ?
96.2

Returns the measured growth for the input compound. Input: `O=C1Nc2ccc(F)cc2/C1=N/c1nnc(Sc2ccccc2)s1`
102

Dear colleague, I am looking for the recorded growth of the following compound: `CC(C)CCSc1nc(Nc2ccccc2)c(C#N)c(-c2ccccc2)n1`
81.4

Please look at the following compound next.
If you can, please state the reported growth value of `O=C(O)CCCn1c(SCc2c(Cl)cccc2Cl)nc2ccsc2c1=O` .
31.3
